Source of measurements: PubChem BioAssay (NCATS)

Molecular target: Cytochrome P450 3A4 (Homo sapiens)
Assay: qHTS Assay for Inhibitors and Substrates of Cytochrome P450 3A4 (AID 884); note: nearly all actives have a fitted effect of over 50% in size
Conditions: recombinant CYP3A4, Luciferin-PPXE luminescence; series mostly up to 57.1 µM
Experimental: NIH Molecular Libraries Screening Centers Network [MLSCN] NIH Chemical Genomics Center [NCGC] The P450 gene superfamily is involved in the metabolism and clearance of xenobiotics. […] The luciferin is then measured by luminescence after the addition of a luciferase detection reagent. […] Inhibitors and some substrates limit the production of luciferin, and decrease measured luminescence. […]
Inconclusive results are not listed. Calls of active or inactive are those of the source. Calls come from the whole dose curve; as a rule, active = well fitted inhibition curve with a large enough effect; inconclusive = small, poorly fitted or top-dose-only effect; inactive = no such curve, though single readings can be large or run the other way.

>  <compound>
[N-]=[N+]=Nc1nc2c(N)ncnc2n1C1OC(CO)C(O)C1O (stereo not drawn)

>  <outcome>
inactive

$$$$
>  <compound>
COc1cc2c3cc1Oc1cc(ccc1O)CC1c4c(cc(OC)c(O)c4Oc4ccc(cc4)CC3N(C)CC2)CC[N+]1(C)C (stereo not drawn)

>  <outcome>
inactive

$$$$
>  <compound>
Nc1nc2c(nc(Br)n2C2OC(CO)C(O)C2O)c(=O)[nH]1 (stereo not drawn)

>  <outcome>
inactive

$$$$
